target: T1, human complement component C3a (human, UniProt P01024 672-748); experiment: SPR (BIACORE 2000), biotinylated peptide on streptavidin chip, C3a as analyte; Kd = koff/kon from kobs plots; first extracellular loop of the human protein
T1 construct: also called Human C3a; complement-derived peptide C3a
pKd: −log10 of the molar value. Ends that are not written are not given here. * marks the point of attachment. Biotin = O=C1N[C@H]2[C@H](CS[C@H]2CCCCC(=O)*)N1

| binder | pKd |
| --- | --- |
| Biotin-SVLDISHIEGDIFSSFKAGY (also called first extracellular loop of human FcεRI β-chain) [biotinylated peptide of the 1st extracellular loop of the human FcεRI β chain] | 6.60 |
